- System: ATP;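 also: ATP exposure 15 min at 22 °C before imaging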
- PROCEDURE_SUMMARY: switch fluorescence ratio, 500 uM ATP over buffer (Cy3 cluster intensity, sum of 5 cycles each) (fold (ratio)); higher = stronger signal-on switching upon ATP binding; sequences stand for … in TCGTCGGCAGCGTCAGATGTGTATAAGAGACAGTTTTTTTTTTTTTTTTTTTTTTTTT…TC
- MEASUREMENT_CONTEXT: aptamer strand: ATP DNA aptamer (quencher-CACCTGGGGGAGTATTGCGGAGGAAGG + anchor), 100 nM annealed; ATP concentration: 500 uM
ASSAY_METRIC: switch fluorescence ratio

INSERT INTO measurements (sequence_text, tested_target, result) VALUES
  ('ACTAAAGGG', 'ATP', 1.02),
  ('GATTCACTAA', 'ATP', 0.989),
  ('TTCGTCATTT', 'ATP', 0.983),
  ('GATTAGGCGA', 'ATP', 1.02),
  ('ATTCTGGGAT', 'ATP', 1.01),
  ('GACTAAGGGG', 'ATP', 1),
  ('CAGTTCGGCC', 'ATP', 1.01),
  ('TGGCGATTTT', 'ATP', 0.978),
  ('CAGGAAGCGG', 'ATP', 1.02),
  ('GTTGGGACGA', 'ATP', 1),
  ('TGCCGAGATC', 'ATP', 1),
  ('TTTGTAGCCG', 'ATP', 1.01),
  ('GTTATGGGTG', 'ATP', 0.983),
  ('GGGGGGATCG', 'ATP', 0.979),
  ('ATGTGGGGCC', 'ATP', 0.995),
  ('TTTTTACATT', 'ATP', 0.99),
  ('TGGGGGATCA', 'ATP', 0.978),
  ('GGAAGGGATG', 'ATP', 1),
  ('TAACGAGTCT', 'ATP', 1.01),
  ('CGATATCGTG', 'ATP', 1),
  ('TTCCATTAGT', 'ATP', 1.01),
  ('TAGAAAAATG', 'ATP', 0.991),
  ('TATGTAATTT', 'ATP', 0.993),
  ('TGGGGACTAT', 'ATP', 1.02),
  ('AGTTTTAGTC', 'ATP', 1.01),
  ('AGGGTTTTTG', 'ATP', 0.994),
  ('CTCGGCGCGC', 'ATP', 1.02),
  ('GTTTATTTCG', 'ATP', 0.987),
  ('GGATGCTGAT', 'ATP', 1),
  ('TTTTTTGTGC', 'ATP', 0.99),
  ('GGATTGGGGT', 'ATP', 0.986),
  ('AAGATCAGGC', 'ATP', 0.973),
  ('CCTGTTTTTT', 'ATP', 1.02),
  ('GCAGGAATGT', 'ATP', 1),
  ('GCTGCAGATT', 'ATP', 0.988),
  ('CGAGGGGTAG', 'ATP', 0.996),
  ('TTACTAGGCA', 'ATP', 1.01),
  ('CACGGCGTAG', 'ATP', 1.02),
  ('GATGAATGGG', 'ATP', 0.996),
  ('TACGAAGGGT', 'ATP', 0.987),
  ('AGTAGGCAAG', 'ATP', 1),
  ('TGGATCATTT', 'ATP', 0.999),
  ('CAGACCGGTT', 'ATP', 0.996),
  ('TAGTAATTGG', 'ATP', 0.987),
  ('AGTAATTTTT', 'ATP', 1),
  ('GAGGTAAGGT', 'ATP', 1),
  ('AATTTTATGT', 'ATP', 1.01),
  ('GGGCGCAAGG', 'ATP', 1.02),
  ('CGGTGGGTAA', 'ATP', 1.01),
  ('AAAGTTGGAT', 'ATP', 0.977),
  ('GATTGTTTTT', 'ATP', 0.997),
  ('AAATAAAATT', 'ATP', 0.982),
  ('TATTAACGAG', 'ATP', 0.995),
  ('ATGTGGGAGG', 'ATP', 1),
  ('TGCTTATCGC', 'ATP', 0.995),
  ('TGGGACTTTT', 'ATP', 1.01),
  ('GGATTAAAAG', 'ATP', 1.01);

###

Each item that follows carries a reported switch fluorescence ratio.
- Test system: ATP;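 also: ATP exposure 15 min at 22 °C before imaging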
- PROCEDURE_SUMMARY: switch fluorescence ratio, 500 uM ATP over buffer (Cy3 cluster intensity, sum of 5 cycles each) (fold (ratio)); higher = stronger signal-on switching upon ATP binding; sequences stand for … in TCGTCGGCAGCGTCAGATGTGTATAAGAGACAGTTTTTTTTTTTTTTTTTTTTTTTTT…TC
- MEASUREMENT_CONTEXT: aptamer strand: ATP DNA aptamer (quencher-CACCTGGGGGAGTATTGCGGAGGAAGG + anchor), 100 nM annealed; ATP concentration: 500 uM
ASSAY_METRIC: switch fluorescence ratio

INSERT INTO results (sequence_text, assay_metric, result) VALUES
  ('GTTGTGGGTG', 'switch fluorescence ratio', 1.03),
  ('ATGACCGATT', 'switch fluorescence ratio', 1.02),
  ('GGATTTTAGC', 'switch fluorescence ratio', 0.984),
  ('GCTTCTGCCT', 'switch fluorescence ratio', 1),
  ('CAGGGGTAAA', 'switch fluorescence ratio', 1.01),
  ('GAAATACTCT', 'switch fluorescence ratio', 1.44),
  ('TTTTTCCGCG', 'switch fluorescence ratio', 1.13),
  ('AATTTTTCTT', 'switch fluorescence ratio', 0.98),
  ('CCATAAAGGG', 'switch fluorescence ratio', 1.07),
  ('AAAGGGTACT', 'switch fluorescence ratio', 1.08),
  ('TTTTGCGGTT', 'switch fluorescence ratio', 0.998),
  ('GGGCGTTTTT', 'switch fluorescence ratio', 0.992);

###

- Tested on: ATP;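 also: ATP exposure 15 min at 22 °C before imaging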
- PROCEDURE_SUMMARY: switch fluorescence ratio, 500 uM ATP over buffer (Cy3 cluster intensity, sum of 5 cycles each) (fold (ratio)); higher = stronger signal-on switching upon ATP binding; sequences stand for … in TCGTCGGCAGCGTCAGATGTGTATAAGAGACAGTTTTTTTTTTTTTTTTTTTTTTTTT…TC
- MEASUREMENT_CONTEXT: aptamer strand: ATP DNA aptamer (quencher-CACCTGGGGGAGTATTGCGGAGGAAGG + anchor), 100 nM annealed; ATP concentration: 500 uM
ASSAY_METRIC: switch fluorescence ratio

INSERT INTO assay_data (sequence_text, assay_metric, result) VALUES
  ('TACGGAGGGA', 'switch fluorescence ratio', 1.08),
  ('CCTGTAATGT', 'switch fluorescence ratio', 1.12),
  ('TAATAGAAGT', 'switch fluorescence ratio', 0.979),
  ('TTGGGTACGA', 'switch fluorescence ratio', 0.997),
  ('TTCTATACAT', 'switch fluorescence ratio', 1.04),
  ('TTTTGTTTGC', 'switch fluorescence ratio', 1.02),
  ('GTTAAAGGTA', 'switch fluorescence ratio', 0.962),
  ('AAAATCAGCC', 'switch fluorescence ratio', 1.07),
  ('ATTATTTGCC', 'switch fluorescence ratio', 0.99),
  ('AGTTTGGGGT', 'switch fluorescence ratio', 1.01),
  ('ATAGGGCACA', 'switch fluorescence ratio', 1.08),
  ('TGGCCGTATT', 'switch fluorescence ratio', 1),
  ('AAATTTTTAG', 'switch fluorescence ratio', 1.02),
  ('TTTTTCACGG', 'switch fluorescence ratio', 0.999),
  ('TATGCGTTGC', 'switch fluorescence ratio', 1.02),
  ('ATCATACGGA', 'switch fluorescence ratio', 1.03),
  ('AGATATAGGG', 'switch fluorescence ratio', 0.937),
  ('CGGATTCGTA', 'switch fluorescence ratio', 0.986),
  ('AATCAGTCTG', 'switch fluorescence ratio', 0.992),
  ('TGGTGGGGGC', 'switch fluorescence ratio', 1),
  ('ATACGCAGCG', 'switch fluorescence ratio', 0.998),
  ('TGCGTCAGCC', 'switch fluorescence ratio', 1.04),
  ('CTGCTGAGGG', 'switch fluorescence ratio', 0.99),
  ('AAGTTGCTTG', 'switch fluorescence ratio', 0.989),
  ('TTGGGGATTC', 'switch fluorescence ratio', 0.991),
  ('CGGAGTCGGG', 'switch fluorescence ratio', 1.04),
  ('GGAAGATTCG', 'switch fluorescence ratio', 0.984);

###

- Test system: ATP;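 also: ATP exposure 15 min at 22 °C before imaging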
- PROCEDURE_SUMMARY: switch fluorescence ratio, 500 uM ATP over buffer (Cy3 cluster intensity, sum of 5 cycles each) (fold (ratio)); higher = stronger signal-on switching upon ATP binding; sequences stand for … in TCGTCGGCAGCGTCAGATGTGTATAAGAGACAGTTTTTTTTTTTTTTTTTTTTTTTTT…TC
- MEASUREMENT_CONTEXT: aptamer strand: ATP DNA aptamer (quencher-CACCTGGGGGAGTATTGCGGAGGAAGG + anchor), 100 nM annealed; ATP concentration: 500 uM
The entries below come with measured switch fluorescence ratio values attached.
ASSAY_METRIC: switch fluorescence ratio

INSERT INTO assay_data (sequence_text, result) VALUES
  ('GAGCTTTTGA', 0.971),
  ('TTTCGAAAGG', 0.983),
  ('TGGGCTAATT', 1.02),
  ('GGCATGTGCG', 1.02),
  ('GTTTTAGAGT', 0.989),
  ('TGACATAGGT', 1.02),
  ('TTCGGGTTAT', 1.01),
  ('GGTTGGGGAT', 0.979),
  ('TTTATGTCGT', 0.986),
  ('TTTTCGGATT', 0.985),
  ('GGTATTATAT', 0.98),
  ('CGTGCATGAG', 1.01),
  ('ACGGGCGGCG', 0.979),
  ('AAACATTTTG', 1.02),
  ('TACAAGTCGA', 1.02),
  ('TAAATAGGGC', 1.02),
  ('TATGGAAGTA', 1.01),
  ('TTGGTTTGTA', 1),
  ('AGTTAGGCCT', 1.02),
  ('AAGATTTTTC', 0.992),
  ('CGATTCGGTA', 1.01),
  ('AAGGGATTAA', 1.01),
  ('TTTAAGACGG', 0.984),
  ('GGAAGAAAAA', 1.01),
  ('TAGGTAGAGT', 0.99),
  ('TTTTTCACGT', 1.02),
  ('TCGTTATGTC', 1),
  ('TTGCGATTTT', 0.993),
  ('CGGCGAGAAC', 1.04),
  ('AAGTATTTCG', 1),
  ('GTCGTCCGGG', 0.986),
  ('AGGAGAGGAT', 1.14),
  ('GTTTTTCAGG', 1),
  ('GCTTGATTAG', 0.996),
  ('TGTGGCGACG', 0.957),
  ('GGAAATTGGG', 0.994),
  ('TGGGGCCGCG', 1.05),
  ('GCGTTGAGGA', 1.04),
  ('GCAAGACAAG', 1.05),
  ('TTGTAAATTT', 1.01),
  ('TTATGGCTAT', 0.991),
  ('GTTACGGCAA', 1.27),
  ('CGGGGAGTCG', 0.945),
  ('TTTTATTATG', 1);

Sourced from the supplement of paper PMC10126150
